This collection of values is drawn from patent US20020147353A1.

The entries below come with measured pIC50 values attached.
System: iron/ascorbate induced lipid peroxidation
Assay: Lipid peroxidation (LPO) model, heat-treated hepatic microsomes, TBA reactive substances
Format: biochemical
Conditions: rat hepatic microsomes, reaction started with 10 uM FeSO4; mean ± s.e.m., n = 3-5
Recall that pIC50 is obtained by taking minus log10 of the concentration measured in molar.

Sample records with pIC50:
>>> readout_value("C[C@@H]1O[C@@H](OC[C@H]2O[C@@H](Oc3c(-c4ccc(O)c(O)c4)oc4cc(OCCO)cc(O)c4c3=O)[C@H](O)[C@@H](O)[C@@H]2O)[C@H](O)[C@H](O)[C@H]1O [monoHER, 7-monohydroxyethylrutoside, reference compound]")
4.90
>>> readout_value("O=c1c(O)c(-c2ccc(O)cc2)oc2cc(O)cc(O)c12 [Kaempferol, reference compound]")
5.22
>>> readout_value("C[N+](C)(C)CCCc1c(-c2ccc(O)c(O)c2)oc2cc(O)ccc2c1=O.[Cl-] [Compound 10d]")
5.42
>>> readout_value("COc1ccc2c(=O)cc(-c3ccc(O)c(O)c3)oc2c1 [Compound 8b, 3′,4′-dihydroxy-7-methoxyflavone]")
5.60

# pIC50 (compound: C[N+](C)(C)CCCOc1c(-c2ccc(O)c(O)c2)oc2ccccc2c1=O ) is 5.92

# pIC50 (compound: O=c1c(OCCO)c(-c2ccc(O)c(O)c2)oc2cc(O)ccc12 [Compound 10c] ) is 4.66

# pIC50 (compound: COc1c(-c2ccc(O)c(O)c2)oc2cc(O)ccc2c1=O [Compound 10b, 3-methoxy-7,3′,4′-trihydroxyflavone] ) is 5.80

# pIC50 (compound: COc1c(-c2ccc(O)c(O)c2)oc2ccccc2c1=O [Compound 9b, 3′4′-dihydroxy-3-methoxyflavone] ) is 5.89

====

Test system: iron/ascorbate induced lipid peroxidation
Experiment: Lipid peroxidation (LPO) model, heat-treated hepatic microsomes, TBA reactive substances
Type: biochemical
Conditions: rat hepatic microsomes, reaction started with 10 uM FeSO4; mean ± s.e.m., n = 3-5
recorded-endpoint: IC50 (µM)
Give the value in µM but do not write µM after it.

# IC50 (molecule: O=c1c(O)c(-c2ccccc2)oc2cc(O)cc(O)c12 [Galangin, reference compound] ) is 6

# IC50 (molecule: O=C(O)COc1c(-c2ccc(O)c(O)c2)oc2ccccc2c1=O ) is 6.5

# IC50 (molecule: O=c1c(OCCO)c(-c2ccc(O)c(O)c2)oc2ccccc12 [Compound 9c, 3′,4′-dihydroxy-3-hydroxyethoxyflavone] ) is 0.6

# IC50 (molecule: O=c1cc(-c2ccc(O)c(O)c2)oc2cc(O)ccc12 [Compound 8a, 3′,4′,7-trihydroxyflavone] ) is 11

====

Test system: isolated mouse left atrium
Test: Isolated mouse left atrium model: protection against doxorubicin-induced negative inotropy
Set-up: key: NP: No protection
Conditions: 250 μM flavonoid with 35 μM doxorubicin, electrically paced mouse left atrium
recorded-endpoint: Atrium protection (250 μM)

Sample records with Atrium protection (250 μM):
>>> readout_value("O=C(O)COc1c(-c2ccc(O)c(O)c2)oc2ccccc2c1=O [Compound 9d]")
"NP"
>>> readout_value("O=c1c(O)c(-c2ccc(O)c(O)c2)oc2ccccc12 [Compound 9a, 3′3,3′,4′-trihydroxyflavone]")
"NP^1"
>>> readout_value("O=c1c(OCCO)c(-c2ccc(O)c(O)c2)oc2cc(O)ccc12 [Compound 10c]")
"13%"
>>> readout_value("C[C@@H]1O[C@@H](OC[C@H]2O[C@@H](Oc3c(-c4ccc(O)c(O)c4)oc4ccccc4c3=O)[C@H](O)[C@@H](O)[C@@H]2O)[C@H](O)[C@H](O)[C@H]1O [Compound 9j, 3′,4′-dihydroxy-3-rutinoseflavone]")
"NP"
>>> readout_value("C[N+](C)(C)CCCc1c(-c2ccc(O)c(O)c2)oc2cc(O)ccc2c1=O.[Cl-] [Compound 10d]")
"33%"

The molecule COc1c(-c2ccc(O)c(O)c2)oc2cc(O)ccc2c1=O [Compound 10b, 3-methoxy-7,3′,4′-trihydroxyflavone] , tested on isolated mouse left atrium, showed Atrium protection (250 μM) of NP

The molecule C[N+](C)(C)CCCCCCOc1c(-c2ccc(O)c(O)c2)oc2ccccc2c1=O [Compound 9g] , tested on isolated mouse left atrium, showed Atrium protection (250 μM) of NP

====

Test system: isolated mouse left atrium
Test: Isolated mouse left atrium model: protection against doxorubicin-induced negative inotropy
Settings: 250 μM flavonoid with 35 μM doxorubicin, electrically paced mouse left atrium
recorded-endpoint: Atrium protection (250 μM)

>>> readout_value("C[C@@H]1O[C@@H](OC[C@H]2O[C@@H](Oc3c(-c4ccc(O)c(O)c4)oc4cc(OCCO)cc(O)c4c3=O)[C@H](O)[C@@H](O)[C@@H]2O)[C@H](O)[C@H](O)[C@H]1O [monoHER, 7-monohydroxyethylrutoside, reference compound]")
"52%"
>>> readout_value("O=c1c(O[C@@H]2O[C@H](CO)[C@@H](O)[C@H](O)[C@H]2O)c(-c2ccc(O)c(O)c2)oc2ccccc12 [Compound 9i, 3′,4′-dihydroxy-3-glucoseflavone]")
"46%"
>>> readout_value("C[N+](C)(C)CCCOc1c(-c2ccc(O)c(O)c2)oc2ccccc2c1=O [Compound 9f]")
"NP"
>>> readout_value("O=c1c(OCCO)c(-c2ccc(O)c(O)c2)oc2ccccc12 [Compound 9c, 3′,4′-dihydroxy-3-hydroxyethoxyflavone]")
"NP"
>>> readout_value("C[N+](C)(C)CCCCCCCCOc1c(-c2ccc(O)c(O)c2)oc2ccccc2c1=O [Compound 9h]")
"NP"

# Atrium protection (250 μM) (compound: COc1c(-c2ccc(O)c(O)c2)oc2ccccc2c1=O [Compound 9b, 3′4′-dihydroxy-3-methoxyflavone] ) is NP

# Atrium protection (250 μM) (compound: CN(C)CCCOc1c(-c2ccc(O)c(O)c2)oc2ccccc2c1=O [Compound 9e] ) is NP
